Reference for the values: ChEMBL document CHEMBL4483862

system: Plasmodium berghei; test: Luciferase/luciferin-expressing antifolate-resistant parasites were used to infect a culture of HepG2 cells that were pre-incubated with compounds. Infected hepatocytes emit light due to the luciferase reaction. Assay results are presented as the percent inhibition of light emission compared to control. […]; format: functional; details: sporozoite, PBLUC_HILL_SLOPE 4.06, PBLUC_R_SQUARED 0.673, read-out: LUCIFERASE INFECTION ASSAY - IC50
Experimental readout: pIC50
Hey, just a heads up that pIC50 is the negative log base 10 of the concentration in molar.

Query: Can you share its pIC50? I mean this molecule: Cc1ccc(C)c(S(=O)(=O)N(CC(=O)N2CCN(C(=O)c3ccco3)CC2)c2cccc(C(F)(F)F)c2)c1
Response: 5.32

---

tested on: Plasmodium berghei; assay: Luciferase/luciferin-expressing antifolate-resistant parasites were used to infect a culture of HepG2 cells that were pre-incubated with compounds. Infected hepatocytes emit light due to the luciferase reaction. Assay results are presented as the percent inhibition of light emission compared to control. […]; type: functional; details: sporozoite, read-out: LUCIFERASE INFECTION ASSAY - IC90
Overview of recorded log10 of IC90 for various compounds
Scale: decimal log of IC90, IC90 in µM.

COc1ccc(-c2nnc3ccc(-c4ccc5ncccc5c4)cn23)cc1OC | -1.18

# input for lookup
Query: Can you share its log10 of IC90? I mean this compound: COc1ccc(CNCC(O)COc2ccc(C(C)(C)C)cc2C)cc1OC (stereo not given)
Response: 1.00

---

tested on: Plasmodium berghei; test: Luciferase/luciferin-expressing antifolate-resistant parasites were used to infect a culture of HepG2 cells that were pre-incubated with compounds. Infected hepatocytes emit light due to the luciferase reaction. Assay results are presented as the percent inhibition of light emission compared to control. […]; format: functional; conditions: sporozoite, FFLUC_HILL_SLOPE 12.2, FFLUC_R_SQUARED 0.17, PBLUC_HILL_SLOPE 2.56, PBLUC_R_SQUARED 0.393, read-out: LUCIFERASE INFECTION ASSAY - IC50
Experimental readout: pIC50
Hey, just a heads up that pIC50 is the negative log base 10 of the concentration in molar.

Query: Can you share its pIC50? I mean this compound: O=C(COc1ccccc1C(=O)Nc1ccccc1)NC(c1ccc(F)cc1)c1cccs1 (stereo unspecified)
Response: 5.15

---

test system: Plasmodium berghei; assay: Luciferase/luciferin-expressing antifolate-resistant parasites were used to infect a culture of HepG2 cells that were pre-incubated with compounds. Infected hepatocytes emit light due to the luciferase reaction. Assay results are presented as the percent inhibition of light emission compared to control. […]; type: functional; details: sporozoite, HEPG2TOX_HILL_SLOPE 8.83, HEPG2TOX_R_SQUARED 0.45, PBLUC_HILL_SLOPE 2.41, PBLUC_R_SQUARED 0.415, read-out: LUCIFERASE INFECTION ASSAY - IC50
Experimental readout: pIC50
Hey, just a heads up that pIC50 is the negative log base 10 of the concentration in molar.

Query: Please provide the recorded pIC50 for Cc1cccc(C(=O)Nc2nc3ccccn3c2C(=O)NC2CCCC2)c1 , tested on Plasmodium berghei.
Response: 5.73

---

system: Plasmodium berghei; experiment: Luciferase/luciferin-expressing antifolate-resistant parasites were used to infect a culture of HepG2 cells that were pre-incubated with compounds. Infected hepatocytes emit light due to the luciferase reaction. Assay results are presented as the percent inhibition of light emission compared to control. […]; assay type: functional; settings: sporozoite, PBLUC_HILL_SLOPE 0.897, PBLUC_R_SQUARED 0.83, read-out: LUCIFERASE INFECTION ASSAY - IC50
Experimental readout: pIC50
Hey, just a heads up that pIC50 is the negative log base 10 of the concentration in molar.

Query: Please provide the recorded pIC50 for O=C(NC1CCN(c2nccc(C(F)(F)F)n2)CC1)c1ccco1 , tested on Plasmodium berghei.
Response: 5.59

---

tested on: Plasmodium berghei; experiment: Luciferase/luciferin-expressing antifolate-resistant parasites were used to infect a culture of HepG2 cells that were pre-incubated with compounds. Infected hepatocytes emit light due to the luciferase reaction. Assay results are presented as the percent inhibition of light emission compared to control. […]; type: functional; details: sporozoite, PBLUC_HILL_SLOPE 3.05, PBLUC_R_SQUARED 0.174, read-out: LUCIFERASE INFECTION ASSAY - IC50
Experimental readout: pIC50
Hey, just a heads up that pIC50 is the negative log base 10 of the concentration in molar.

Query: Can you share its pIC50? I mean this molecule: COc1ccc(OC)c(CCNc2nc3cnc(-c4cc(OC)c(OC)c(OC)c4)cc3n2C)c1
Response: 5.12

---

system: Plasmodium berghei; test: Luciferase/luciferin-expressing antifolate-resistant parasites were used to infect a culture of HepG2 cells that were pre-incubated with compounds. Infected hepatocytes emit light due to the luciferase reaction. Assay results are presented as the percent inhibition of light emission compared to control. […]; type: functional; details: sporozoite, HEPG2TOX_HILL_SLOPE 13, HEPG2TOX_R_SQUARED 0.218, read-out: LUCIFERASE INFECTION ASSAY - IC50
Experimental readout: IC50

Query: Can you share its IC50? I mean this compound: CCCCCCCCCCCCCCCCCC1=[N+](c2ccccc2)C(Nc2ccccc2)CN1c1ccccc1 (stereo unspecified)
Response: > 5.61 µM

---

tested on: Plasmodium berghei; assay: Luciferase/luciferin-expressing antifolate-resistant parasites were used to infect a culture of HepG2 cells that were pre-incubated with compounds. Infected hepatocytes emit light due to the luciferase reaction. Assay results are presented as the percent inhibition of light emission compared to control. […]; type: functional; conditions: sporozoite, HEPG2TOX_HILL_SLOPE 0.0695, HEPG2TOX_R_SQUARED 0.0364, read-out: LUCIFERASE INFECTION ASSAY - IC50
Experimental readout: IC50

Query: Can you share its IC50? I mean this molecule: Cc1ncc(CO)c(/C=N/NC(=S)Nc2ccc(C(C)C)cc2)c1O
Response: > 10 µM

---

system: Plasmodium berghei; assay: Luciferase/luciferin-expressing antifolate-resistant parasites were used to infect a culture of HepG2 cells that were pre-incubated with compounds. Infected hepatocytes emit light due to the luciferase reaction. Assay results are presented as the percent inhibition of light emission compared to control. […]; assay type: functional; conditions: sporozoite, FFLUC_HILL_SLOPE 69.3, FFLUC_R_SQUARED 0.272, PBLUC_HILL_SLOPE 39, PBLUC_R_SQUARED 0.0559, read-out: LUCIFERASE INFECTION ASSAY - IC50
Experimental readout: IC50

Query: Can you share its IC50? I mean this compound: Oc1cccc2c(NC(S)=Nc3ccc(SC(F)F)cc3)cccc12
Response: 7.27 µM

---

tested on: Plasmodium berghei; experiment: Luciferase/luciferin-expressing antifolate-resistant parasites were used to infect a culture of HepG2 cells that were pre-incubated with compounds. Infected hepatocytes emit light due to the luciferase reaction. Assay results are presented as the percent inhibition of light emission compared to control. […]; format: functional; conditions: sporozoite, HEPG2TOX_HILL_SLOPE 7.89, HEPG2TOX_R_SQUARED 0.4, PBLUC_HILL_SLOPE 3.95, PBLUC_R_SQUARED 0.259, read-out: LUCIFERASE INFECTION ASSAY - IC50
Experimental readout: IC50 (µM)
Lab book: enter the figure in µM, no units written.

Query: Can you share its IC50? I mean this compound: O=C(NC(=O)c1cc(Br)cc(Br)c1)Nc1cc(C(F)(F)F)cc(C(F)(F)F)c1
Response: 3.04

---

test system: Plasmodium berghei; experiment: Luciferase/luciferin-expressing antifolate-resistant parasites were used to infect a culture of HepG2 cells that were pre-incubated with compounds. Infected hepatocytes emit light due to the luciferase reaction. Assay results are presented as the percent inhibition of light emission compared to control. […]; type: functional; settings: sporozoite, PBLUC_HILL_SLOPE 4.44, PBLUC_R_SQUARED 0.805, read-out: LUCIFERASE INFECTION ASSAY - IC50
Experimental readout: pIC50
Hey, just a heads up that pIC50 is the negative log base 10 of the concentration in molar.

Query: Can you share its pIC50? I mean this compound: N#Cc1ccc(-c2cnc3cnc(/C=C/c4ccccc4)cn23)cc1
Response: 6.04

---

test system: Plasmodium berghei; assay: Luciferase/luciferin-expressing antifolate-resistant parasites were used to infect a culture of HepG2 cells that were pre-incubated with compounds. Infected hepatocytes emit light due to the luciferase reaction. Assay results are presented as the percent inhibition of light emission compared to control. […]; format: functional; conditions: sporozoite, PBLUC_HILL_SLOPE 1.17, PBLUC_R_SQUARED 0.5, read-out: LUCIFERASE INFECTION ASSAY - IC50
Experimental readout: IC50 (nM)
Lab book: enter the figure in nM, no units written.

Query: Please provide the recorded IC50 for Nc1c(C(=O)Nc2cccc(F)c2)sc2nc3c(cc12)N1CCC3CC1 , tested on Plasmodium berghei.
Response: 1980
